# Tgt: RINm5f cells expressing endogenous GLP-1, calcitonin, and GIP receptors (Rattus norvegicus, UniProt P32301)
# Construct: RINm5f cells expressing endogenous GLP-1, calcitonin, and GIP receptors; endogenous in cells; host or cells: RINm5f cells
# Sequence (P32301 22-463): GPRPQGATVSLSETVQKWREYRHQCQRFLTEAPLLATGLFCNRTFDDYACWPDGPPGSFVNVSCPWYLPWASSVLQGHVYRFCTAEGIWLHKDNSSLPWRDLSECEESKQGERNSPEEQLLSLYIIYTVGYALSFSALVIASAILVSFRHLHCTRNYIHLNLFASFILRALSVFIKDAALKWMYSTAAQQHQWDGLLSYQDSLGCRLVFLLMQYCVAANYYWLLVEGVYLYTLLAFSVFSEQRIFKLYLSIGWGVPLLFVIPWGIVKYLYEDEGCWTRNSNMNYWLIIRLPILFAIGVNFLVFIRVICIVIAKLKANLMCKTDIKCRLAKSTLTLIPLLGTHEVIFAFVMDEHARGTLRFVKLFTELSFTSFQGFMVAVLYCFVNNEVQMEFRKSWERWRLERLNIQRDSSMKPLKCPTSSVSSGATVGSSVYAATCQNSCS
# Measurement protocol: GLP/GIP/CT cAMP (RIN) assay
# Format: cell-based
Where no end group is shown, it is not given here.
Readout type: GLP/GIP/CT cAMP(RIN) EC50 (nM)

[[record]]
substance = "HAEGTFTSDVTQQLEEKAAKEFIEWLIKGKPKKIRYS-NH2 (C-terminus assumed) [compound 22]"
readout_type = "GLP/GIP/CT cAMP(RIN) EC50"
observed_measurement = 0.1

[[record]]
substance = "HAEGTFTSDVTQQLDEKAAKEFIDWLINPGSEGIKSI-NH2 (C-terminus assumed) [compound 14]"
readout_type = "GLP/GIP/CT cAMP(RIN) EC50"
observed_measurement = 18

[[record]]
substance = "HAEGTFTSDVTQQLDEKAAKEFIDALINGGPSKEIIS-NH2 (C-terminus assumed) [compound 13]"
readout_type = "GLP/GIP/CT cAMP(RIN) EC50"
observed_measurement = 196

[[record]]
substance = "HAEGTYTNDVTEYLEEKAAKEFIEWLIK-NH2 (C-terminus assumed) [compound 25]"
readout_type = "GLP/GIP/CT cAMP(RIN) EC50"
observed_measurement = 0.53

[[record]]
substance = "HAEGTFTNDMTNYLEEKAAKEFVGWLIKGRS-NH2 (C-terminus assumed) [compound 6]"
readout_type = "GLP/GIP/CT cAMP(RIN) EC50"
observed_measurement = 1.23

[[record]]
substance = "HGEGTYTNDVTQFLEEKAAKEFIDWLIKGKPKKQRLS-NH2 (C-terminus assumed) [compound 55]"
readout_type = "GLP/GIP/CT cAMP(RIN) EC50"
observed_measurement = 0.576

[[record]]
substance = "HAEGTFTSDVTQQLDEKAAKEFIDWLINGGASKEIIS-NH2 (C-terminus assumed) [compound 12]"
readout_type = "GLP/GIP/CT cAMP(RIN) EC50"
observed_measurement = 0.29

[[record]]
substance = "YADAPYISDVYSYLQDQVAKKWLKSGQD-NH2 [compound 51]"
readout_type = "GLP/GIP/CT cAMP(RIN) EC50"
observed_measurement = 971

[[record]]
substance = "HADGTYTSDVSSYLQDQAAKDFITWLKSGQPKPDAVETRSVDTL-NH2 [compound 49]"
readout_type = "GLP/GIP/CT cAMP(RIN) EC50"
observed_measurement = 415

[[record]]
substance = "HAEGTYTNDVTEYLEEKAAKEFIEWLIN-NH2 (C-terminus assumed) [compound 24]"
readout_type = "GLP/GIP/CT cAMP(RIN) EC50"
observed_measurement = 0.85

[[record]]
substance = "HADGTFTNDMTSYLDAKAARDFVSWLARSDKS-NH2 [compound 52]"
readout_type = "GLP/GIP/CT cAMP(RIN) EC50"
observed_measurement = 382

[[record]]
substance = "HADGTYTSDVSSYLQDQAAKDFITWLKSGQPKPDAVET-NH2 [compound 48]"
readout_type = "GLP/GIP/CT cAMP(RIN) EC50"
observed_measurement = 14

[[record]]
substance = "HGEGTYTNDVTEYLEEKAAKEFIEWLIKGKPKKIRYS-NH2 (C-terminus assumed) [compound 26]"
readout_type = "GLP/GIP/CT cAMP(RIN) EC50"
observed_measurement = 0.967

[[record]]
substance = "HAEGTFTSDVTQQLDEKAAKEFIDWLINGGPSSGAPPPS-NH2 (C-terminus assumed) [compound 9]"
readout_type = "GLP/GIP/CT cAMP(RIN) EC50"
observed_measurement = 0.28

[[record]]
substance = "HAEGTYTNDVTEYLEEKAAKEFIEWLINGGPSKEIIS-NH2 (C-terminus assumed) [compound 21]"
readout_type = "GLP/GIP/CT cAMP(RIN) EC50"
observed_measurement = 1

